Tested on: EKVX
Assay: NCI tumour cell line growth inhibition, 48 h
Structures can show the parent of a compound that is named as a salt. The source made the active and inactive calls. Rule as the data show it: active = GI50 up to about 1.1 µM and inactive = higher.
Please answer using one outcome listed in 1 (active), 0 (inactive)

Known results for molecules:
{"molecule": "CC1CCCCN1CC(=O)c1ccc2c(c1)Sc1ccccc1O2 (configuration not stated)", "system.name": "EKVX", "category.label": 0}
{"molecule": "CC(C)C[C@H]1C(=O)N2CCC[C@H]2[C@]2(O)O[C@](NC(=O)[C@@H]3C=C4c5cccc6[nH]c(Br)c(c56)C[C@H]4N(C)C3)(C(C)C)C(=O)N12 [BROMOCRIPTINE MESYLATE]", "system.name": "EKVX", "category.label": 0}

Challenge: Hello, I am checking results. What call was entered for `O=C(O)c1ccccc1C1c2ccccc2Oc2ccccc21` ?
Response given: 0

Challenge: `CCN(CC)COC(=S)S` ?
Response given: 0

Challenge: `c1ccc(-n2cnnc2-c2nsc3ccccc23)cc1` ?
Response given: 0

Challenge: CCCCc1c2c(nc3c1CCCC3O)CCCC2 (configuration not stated) ?
Response given: 0

Challenge: C/C=C1\C[C@@H]2C(OC)Nc3cc(O)c(OC)cc3C(=O)N2C1 (some centres not stated) ?
Response given: 1

Challenge: CC(=O)OC(C)c1cc2c(s1)C(=O)c1ccsc1C2=O (configuration not stated) ?
Response given: 1

Challenge: `c1ccc2c(c1)SCCCSCCCS2` ?
Response given: 0

Challenge: O=C1O[C@@H](c2ccc3c(c2)OCO3)C2C(=O)O[C@@H](c3ccc4c(c3)OCO4)C12 (some centres not stated) ?
Response given: 0

====

System: OVCAR-5
Test: NCI tumour cell line growth inhibition, 48 h
Active and inactive are the calls of the source. Cut-off read from the data, not from the text of the source: active = GI50 up to about 1.1 µM and inactive = higher.
// reported GI50 for each item listed

Past entries and their recorded results:
{"compound": "CC(C)(C)C1C=C(Sc2ccccc2)C(=O)O1 (centres undefined)", "system.name": "OVCAR-5", "reading": "34.2 µM (inactive)"}
{"compound": "C=C1C(=O)OC2/C=C(\\COC(C)=O)CCC(OC(C)=O)C3=CC(OC3=O)C12 (centres undefined)", "system.name": "OVCAR-5", "reading": "17.7 µM (inactive)"}
{"compound": "O=c1[nH]c(=O)n(C2OC(CO)C(O)C(O)C2O)cc1F (centres undefined)", "system.name": "OVCAR-5", "reading": "> 100 µM (inactive)"}

Challenge: Which GI50 is listed for O=C(C#Cc1ccccc1)N1c2ccccc2CC1c1c[nH]c2ccccc12 (centres undefined) ?
Response given: 24.8 µM (inactive)

Challenge: `CN1COCN/C1=N/C#N` ?
Response given: > 100 µM (inactive)

Challenge: `CC1=CCC[C@]2(C)C1=CC(=O)O[C@H]2c1ccoc1` ?
Response given: > 100 µM (inactive)

Challenge: O=c1[nH]cnc2c(C3OC(CO)C(O)C3O)c[nH]c12 (centres undefined) ?
Response given: > 100 µM (inactive)

Challenge: `COc1ccc(NC(=O)CC(=O)n2nc(C)c(/N=N/c3ccc(C)c(C)c3)c2C)cc1` ?
Response given: > 100 µM (inactive)

Challenge: `Cc1cc(S(=O)(=O)Nc2nc3cc(-c4ccc(Cl)cc4)sc3c(=O)n2N)c(S)cc1Cl` ?
Response given: 44.2 µM (inactive)

Challenge: Cc1ccccc1NC(=O)CC(=O)NNC(Sc1ccccc1)c1cc(/N=N/c2ccc(Br)cc2)ccc1O (centres undefined) ?
Response given: 7.59 µM (inactive)

Challenge: C=C(C)C1CC2(C)C(C)CC(OC(=O)/C(C)=C\C)CC2C(OC(=O)/C(C)=C\C)C1O (centres undefined) ?
Response given: > 100 µM (inactive)

Challenge: `C=C1C(=O)[C@@]23CC[C@H]4[C@@](C)(CCC[C@@]4(C)C(=O)OC)[C@@H]2CC[C@]1(O)C3` ?
Response given: 2.02 µM (inactive)

Challenge: `Cn1c(=O)cc(NNc2ccc(Br)cc2)[nH]c1=O` ?
Response given: 13.4 µM (inactive)

Challenge: `C=CCNC1=C2C[C@@H](C)C[C@@H](OC)[C@H](OC(=O)CCN(C)C)[C@H](C)/C=C(\C)[C@@H](OC(N)=O)[C@H](OC)/C=C\C=C(/C)C(=O)NC(=CC1=O)C2=O` ?
Response given: 2.18 µM (inactive)

====

System: BT-549
Experiment: NCI tumour cell line growth inhibition, 48 h
Active and inactive are the calls of the source. Rule as the data show it: active = GI50 up to about 1.1 µM and inactive = higher.
Please answer using one outcome listed in active, inactive

Challenge: Hello, I am checking results. What call was entered for `Cc1ccc(-c2n[nH]c(=O)[nH]2)cc1[N+](=O)[O-]` ?
Response given: inactive

Challenge: COP(=O)(/C=C/C(NC(=O)C(Cl)(Cl)Cl)c1ccccc1)OC (centres undefined) ?
Response given: inactive

Challenge: `O=[N+]([O-])C(/C(Cl)=C(\Cl)Br)=C(/Cl)SCc1ccccc1` ?
Response given: inactive

Challenge: C[C@H]1[C@H](C)N(Cc2ccccc2)P(=O)(C(O)/C=C/c2ccccc2)N1Cc1ccccc1 (some centres undefined) ?
Response given: inactive

Challenge: `Cc1cc(S(=O)(=O)Nc2nc3cc(-c4ccc(Cl)cc4)sc3c(=O)n2N)c(S)cc1Cl` ?
Response given: inactive

Challenge: `NS(=O)(=O)c1nnc(NS(=O)(=O)c2ccccc2[N+](=O)[O-])s1` ?
Response given: inactive

Challenge: `Oc1ccc(-c2cn3cc(C(F)(F)F)ccc3n2)cc1` ?
Response given: inactive

Challenge: `CC(=N/NC(=S)N1CCCCC1)/C(C)=N\NC(=S)N1CCCCC1` ?
Response given: inactive

Challenge: `[O-][n+]1ccc(NO)c2ccccc21` ?
Response given: active

====

Test system: NCI-H23
Experiment: NCI tumour cell line growth inhibition, 48 h
Active and inactive are the calls of the source. Rule as the data show it: active = GI50 up to about 1.1 µM and inactive = higher.
Please answer using one outcome listed in active, inactive

Known results for compounds:
{"compound": "COC(=O)[C@@H]1C[C@@H]2c3ccccc3N(S(=O)(=O)c3ccccc3)[C@@H]2N1C(=O)OC", "system.name": "NCI-H23", "category.label": "inactive"}
{"compound": "Oc1ccc(Br)cc1/C=N/c1ccc(/N=C/c2cc(Br)ccc2O)cc1", "system.name": "NCI-H23", "category.label": "inactive"}
{"compound": "COC(=O)/C(=N\\Nc1nnc(C)n1N)C(C#N)c1ccccc1 (stereo unspecified)", "system.name": "NCI-H23", "category.label": "inactive"}
{"compound": "Cc1ccccc1NC(=O)CC(=O)NNC(Sc1ccccc1)c1cc(/N=N/c2ccc(Br)cc2)ccc1O (stereo unspecified)", "system.name": "NCI-H23", "category.label": "inactive"}
{"compound": "O/N=C(\\CC(O)(C(F)(F)F)C(F)(F)F)c1cccs1", "system.name": "NCI-H23", "category.label": "inactive"}
{"compound": "O=C(O)CC1NC(/C(=C/c2ccccc2)NC(=O)c2ccccc2)OC1=O (stereo unspecified)", "system.name": "NCI-H23", "category.label": "inactive"}

Challenge: Hello, I am checking results. What call was entered for COc1cc2cc(C(=O)N3CC(CCl)c4ccc([N+](C)(C)Cc5ccccc5[N+](=O)[O-])cc43)[nH]c2c(OC)c1OC (stereo unspecified) ?
Response given: active

Challenge: `COc1cccc(-c2nc(O)c3ccccc3n2)c1OC` ?
Response given: inactive

Challenge: `CC(C)(C)CC(C)(C)c1cc2c(O)c(c1)Cc1cc(C(C)(C)CC(C)(C)C)cc(c1O)Cc1cc(C(C)(C)CC(C)(C)C)cc(c1O)Cc1cc(C(C)(C)CC(C)(C)C)cc(c1O)Cc1cc(C(C)(C)CC(C)(C)C)cc(c1O)C2` ?
Response given: inactive

Challenge: `CC[P+]1(CC)CCCC1` ?
Response given: inactive

Challenge: COc1cccc2c1C(=O)c1c(O)c3c(c(O)c1C2=O)C[C@@](O)(C(=O)CN1CCOCC1)C[C@@H]3OC1CC(N)C(O)C(C)O1 (stereo partly specified) ?
Response given: inactive

====

System: NCI-H460
Assay: NCI tumour cell line growth inhibition, 48 h
The source made the active and inactive calls. No stated cut-off is given here; in the data, active = GI50 up to about 1.1 µM and inactive = higher.
// reported GI50 for each item listed

{"molecule": "Cn1c(=O)c2c(nc(NCCCCl)n2CC(=O)NCCCCl)n(C)c1=O", "measurement.label": "GI50", "reading": "> 100 µM (inactive)"}
{"molecule": "O=C(O)c1ccccc1C1c2ccccc2Oc2ccccc21", "measurement.label": "GI50", "reading": "39.9 µM (inactive)"}
{"molecule": "C/N=C(\\S)N/N=C/C(C)=N/N/C(S)=N/C", "measurement.label": "GI50", "reading": "> 100 µM (inactive)"}
{"molecule": "C=C1C(=O)OC2/C=C(\\COC(C)=O)CCC(OC(C)=O)C3=CC(OC3=O)C12 (stereo not drawn)", "measurement.label": "GI50", "reading": "19.5 µM (inactive)"}
{"molecule": "CC(=O)N1C(Nc2ccccc2)CCN1c1ccccc1 (stereo not drawn)", "measurement.label": "GI50", "reading": "> 10 µM (inactive)"}
{"molecule": "COc1ccc(N2C(=O)/C(=C(\\C)c3cc4ccccc4oc3=O)N=C2c2cc([N+](=O)[O-])ccc2Cl)cc1", "measurement.label": "GI50", "reading": "41.9 µM (inactive)"}
{"molecule": "CCn1c2ccc(C(=O)CCCN(C)C)cc2c2cc(C(=O)CCCN(C)C)ccc21", "measurement.label": "GI50", "reading": "0.421 µM (active)"}

The record that follows has no GI50 shown yet.
Challenge: Which GI50 is listed for `Cc1cc(NS(=O)(=O)c2ccc(Nc3c4ccccc4nc4c(C(=O)Nc5ccc(S(=O)(=O)N=C(N)N)cc5)cccc34)cc2)no1` ?
Response given: > 100 µM (inactive)
